Item-by-item account of pEC50
- assayed-target: T1, human claudin 6 (CLDN6) (human, UniProt P56747 1-220)
- T1 construct: also called human CLDN6; hCLDN6
- T1 sequence: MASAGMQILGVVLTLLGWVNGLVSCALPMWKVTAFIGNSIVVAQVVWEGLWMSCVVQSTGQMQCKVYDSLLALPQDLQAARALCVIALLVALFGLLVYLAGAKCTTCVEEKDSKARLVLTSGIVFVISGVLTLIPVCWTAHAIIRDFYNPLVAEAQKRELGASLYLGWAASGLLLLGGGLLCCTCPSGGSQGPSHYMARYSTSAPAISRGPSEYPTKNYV
- protocol-summary: FACS, HEK293T/human CLDN6 cells
Kindly note that pEC50 refers to -log10 of the concentration in mol/L and answer with the value alone.

BG87P-Bz8 (antibody, V domains shown) VH: QIQLVQSGAEVKKPGASVKVSCKASGYSFTDYHINWVRQAPGQRLEWMGWIYPGSGYTKYNEKFKVRVTLTVDTSASTAYMELSSLRSEDTAVYFCARSGIYHYVSSYYFDHWGKGTTVTVSS VL: DIQMTQSPSTLSASVGDRVTITCKASQDVGTAVAWYQQKPGKSPKLLIYWASTRHTGVPSRFSGSGSGTEFTLTISSVQPDDFATYYCQQYSSYTFGGGTKVEIK    8.77
BG87P-23 (antibody, V domains shown) VH: QIQLVQSGAEVKKPGASVKVSCKASGYSFTDYHINWVRQAPGQRLEWMGWIYPGSGYTKYNEKFKGRVTITRDTSASTAYMELSSLRSEDTAVYYCARSGIYHYVSSYYFDHWGKGTTVTVSS VL: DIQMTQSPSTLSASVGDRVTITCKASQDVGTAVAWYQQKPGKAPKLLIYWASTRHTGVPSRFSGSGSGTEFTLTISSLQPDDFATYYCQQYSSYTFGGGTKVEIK    8.61
chimeric BG87P antibody (chBG87P) (antibody, V domains shown) VH: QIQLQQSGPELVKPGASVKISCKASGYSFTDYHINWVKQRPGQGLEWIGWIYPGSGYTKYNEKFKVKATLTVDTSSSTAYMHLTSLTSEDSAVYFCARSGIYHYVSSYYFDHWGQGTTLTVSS VL: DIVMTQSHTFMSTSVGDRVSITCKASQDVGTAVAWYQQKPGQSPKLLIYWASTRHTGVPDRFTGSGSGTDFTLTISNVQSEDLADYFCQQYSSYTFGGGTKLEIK    8.57

Look at this binder and give its reported pEC50. BG87P-Bz1 (antibody, V domains shown) VH: QVQLVQSGAEVKKPGASVKVSCKASGYSFTDYHINWVRQAPGQRLEWMGWIYPGSGYTKYNEKFKVRVTLTVDTSASTAYMELSSLRSEDTAVYFCARSGIYHYVSSYYFDHWGKGTTVTVSS VL: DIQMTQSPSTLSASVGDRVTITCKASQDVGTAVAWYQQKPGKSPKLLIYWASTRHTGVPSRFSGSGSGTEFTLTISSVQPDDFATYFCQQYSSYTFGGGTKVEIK 8.66

Source of measurements: patent US20240301062A1
